Hey, just so you know, these numbers are from patent US20250302832A1.

Give measured DC50 for each item. Keep answers brief.
# target or system: HiBit-BRG1 fusion protein (Homo sapiens)
# Construct: expressed in transfected cells
# Sequence (P51532 whole entry, the tested form may be a part): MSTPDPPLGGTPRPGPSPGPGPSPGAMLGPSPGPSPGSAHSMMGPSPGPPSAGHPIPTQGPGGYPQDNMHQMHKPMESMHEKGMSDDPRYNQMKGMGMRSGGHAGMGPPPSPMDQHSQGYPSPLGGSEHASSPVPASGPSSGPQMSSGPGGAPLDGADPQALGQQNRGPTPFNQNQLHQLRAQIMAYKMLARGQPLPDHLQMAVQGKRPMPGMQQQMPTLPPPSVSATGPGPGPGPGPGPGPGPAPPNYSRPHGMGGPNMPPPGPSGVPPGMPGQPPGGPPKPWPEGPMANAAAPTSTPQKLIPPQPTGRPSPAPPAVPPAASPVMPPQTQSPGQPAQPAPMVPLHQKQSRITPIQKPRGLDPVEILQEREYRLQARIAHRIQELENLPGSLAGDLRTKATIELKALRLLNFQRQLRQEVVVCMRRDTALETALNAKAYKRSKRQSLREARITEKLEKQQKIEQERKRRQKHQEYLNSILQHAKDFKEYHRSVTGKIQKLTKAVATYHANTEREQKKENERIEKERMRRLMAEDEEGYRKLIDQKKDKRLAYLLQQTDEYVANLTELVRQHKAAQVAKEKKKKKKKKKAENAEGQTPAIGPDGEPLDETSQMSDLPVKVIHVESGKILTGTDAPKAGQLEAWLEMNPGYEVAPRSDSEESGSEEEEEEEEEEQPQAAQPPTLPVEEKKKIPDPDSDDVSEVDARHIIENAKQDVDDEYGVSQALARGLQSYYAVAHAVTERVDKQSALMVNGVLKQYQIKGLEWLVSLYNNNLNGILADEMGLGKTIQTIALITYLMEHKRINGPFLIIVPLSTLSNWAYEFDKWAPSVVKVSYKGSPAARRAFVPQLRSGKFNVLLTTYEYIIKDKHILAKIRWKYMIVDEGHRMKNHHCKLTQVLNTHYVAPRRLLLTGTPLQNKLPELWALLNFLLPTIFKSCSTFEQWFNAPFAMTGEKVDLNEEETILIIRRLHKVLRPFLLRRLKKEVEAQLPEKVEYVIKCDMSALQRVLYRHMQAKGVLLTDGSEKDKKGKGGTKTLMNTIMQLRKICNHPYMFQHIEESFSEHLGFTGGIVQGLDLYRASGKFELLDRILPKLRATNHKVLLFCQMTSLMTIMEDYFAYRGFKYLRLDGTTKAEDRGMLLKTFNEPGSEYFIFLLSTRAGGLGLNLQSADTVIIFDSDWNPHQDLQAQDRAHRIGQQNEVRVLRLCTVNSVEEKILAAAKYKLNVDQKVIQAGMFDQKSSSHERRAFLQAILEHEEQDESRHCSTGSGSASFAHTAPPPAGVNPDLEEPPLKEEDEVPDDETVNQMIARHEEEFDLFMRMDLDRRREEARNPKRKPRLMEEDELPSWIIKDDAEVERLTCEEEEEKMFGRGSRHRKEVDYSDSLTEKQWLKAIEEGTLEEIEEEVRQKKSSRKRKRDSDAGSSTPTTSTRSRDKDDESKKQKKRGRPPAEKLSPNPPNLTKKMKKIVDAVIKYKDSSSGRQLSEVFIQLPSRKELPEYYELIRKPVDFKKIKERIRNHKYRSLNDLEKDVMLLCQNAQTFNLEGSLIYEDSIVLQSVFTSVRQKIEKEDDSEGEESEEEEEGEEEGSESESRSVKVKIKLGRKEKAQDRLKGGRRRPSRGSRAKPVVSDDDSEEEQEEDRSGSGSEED
# assay info: HiBiT-BRG1 cell-based degradation assay (Nano-Glo HiBiT lytic detection, 24 h)
# recorded conditions: HeLa cell line expressing HiBit-BRG1 and LgBit, read-out: BRMG1 HiBit Degradation IC50

Here's what some known entries look like.
| compound | target or system | DC50 |
| --- | --- | --- |
| Cc1ncsc1-c1ccc([C@H](C)NC(=O)[C@@H]2C[C@@H](O)CN2C(=O)[C@@H](c2cc(-c3cnc(N4CC[C@H](c5cc6nnc(-c7ccccc7O)cc6n5C56CC(C5)C6)C4)nc3)no2)C(C)C)cc1 [Compound 95] | HiBit-BRG1 fusion protein (Homo sapiens) | > 10 nM |
| Cc1ncsc1-c1ccc([C@H](C)NC(=O)[C@@H]2C[C@@H](O)CN2C(=O)[C@@H](c2cc(N3CCC4(CCC(c5cc6nnc(-c7ccccc7O)cc6n5C5CC5)CC4)CC3)no2)C(C)C)cc1 [Compound 85] | HiBit-BRG1 fusion protein (Homo sapiens) | > 10 nM |
| Cc1ncsc1-c1ccc([C@H](C)NC(=O)[C@@H]2C[C@@H](O)CN2C(=O)[C@@H](c2cc(-c3cnc(N4CC[C@H](c5cc6nnc(-c7ccccc7O)cc6n5C5(C)CC5)C4)nc3)no2)C(C)C)cc1 [Compound 104] | HiBit-BRG1 fusion protein (Homo sapiens) | < 10 nM |
| Cc1ncsc1-c1ccc([C@H](C)NC(=O)[C@@H]2C[C@@H](O)CN2C(=O)[C@@H](c2cc(N3CCC(N4CC(c5cc6nnc(-c7ccccc7O)cc6n5C)C4)CC3)no2)C(C)C)cc1 [Compound 12] | HiBit-BRG1 fusion protein (Homo sapiens) | > 10 nM |

We next turn to a different compound, shown below.
API: value(readout= DC50, system= HiBit-BRG1 fusion protein (Homo sapiens), query= Cc1ncsc1-c1ccc([C@H](C)NC(=O)[C@@H]2C[C@@H](O)CN2C(=O)[C@@H](c2cc(N(C)CCN3CC(c4cc5nnc(-c6ccccc6O)cc5n4C)C3)no2)C(C)C)cc1 [Compound 10] )
> 1000 nM
